Entries and their growth values follow.
Tested on: T-47D breast
Experiment: NCI-60 one-dose screen, 48 h (100 = growth as untreated, 0 = no growth, -100 = all killed)
Conditions: 10 µM unless noted
The panel holds about 83,000 compounds, 20% with a hit somewhere; the sample as a whole holds those more often. Activity calls are given as the source filed them. Rule for the calls: active = growth percent below 10; inactive = the rest.

These solved cases illustrate the format of a correct answer.
Exam item: Data request, read-out growth, for CC[C@@H](C(=O)[C@@H](C)[C@@H](O)[C@H](C)[C@@H]1O[C@@H]([C@@H](CC)C(=O)NCCc2ccc(F)cc2)CC[C@@H]1C)C1O[C@]2(C=CC(=O)[C@]3(CC[C@@](C)([C@H]4CC[C@](O)(CC)[C@H](C)O4)O3)O2)[C@H](C)C[C@@H]1C (stereo not given in full)
Marked response: 15% (inactive)

Exam item: Field entry: "Cc1ccccc1/C=C1\CN(C(=O)OC(C)(C)C)C/C(=C\c2ccccc2C)C1=O"
Marked response: 51.8% (inactive)

Exam item: Repeat for the following compound: "CC(=O)c1cc(O)c2ccccc2c1O"
Marked response: 87.1% (inactive)

Exam item: What do you have for "CCOc1ccc(NC(=O)CSc2oc(-c3ccccc3)nc2S(=O)(=O)c2ccc(F)cc2)cc1" ?
Marked response: 63.1% (inactive)

Exam item: And for "CCOC(=O)c1c2c(n3ccc(C)cc13)C(=O)c1ccccc1C2=O" ?
Marked response: 92.7% (inactive)

Exam item: Next entry: "C#Cc1cccc(Nc2ncnc3ccc(-c4cnc(N)nc4)cc23)c1"
Marked response: 5.19% (active)

Exam item: // next record "O=C(O)/C(=C\c1ccc(Cl)cc1)c1ccc(Cl)cc1"
Marked response: 95.9% (inactive)

Exam item: Also need "Cn1c(=O)c2c(nc(NC3=NS(=O)(=O)c4ccccc43)n2CC(=O)N2CCc3ccccc32)n(C)c1=O" , thanks.
Marked response: 91.3% (inactive)

Continuing:
Exam item: Which growth is listed for "CC1(C)c2[nH]c3ccccc3c2C[C@]2(C)[C@H]3CC=C4[C@@H]5C[C@@](C)(C(N)=O)CC[C@]5(C)CC[C@@]4(C)[C@]3(C)CC[C@@H]12" ?
Marked response: 9.07% (active)

Exam item: Next: "CCOC(=O)C1=C(NC)OCC1=O"
Marked response: 110% (inactive)

Exam item: Now the compound Cc1cccc(N2CCN(CC(O)COc3ccc(Cl)cc3)CC2)c1 (stereo not given)
Marked response: 94.4% (inactive)

Exam item: Also check "O=C(Nc1ccc(-c2nc(N3CCOCC3)c3cccn3n2)cc1)Nc1cccnc1"
Marked response: -24.8% (active)

###

This section presents molecules with their documented growth values.
System: K-562 leukemia
Assay: NCI-60 one-dose screen, 48 h (100 = growth as untreated, 0 = no growth, -100 = all killed)
Conditions: 10 µM unless noted
This is part of a sample that, as a whole, favours compounds with a hit. Of some 83,000 tested, about 20% had one in any assay. Calls of active or inactive are those of the source. Rule for the calls: active = growth percent below 10; inactive = the rest.

Take a look at these entries with their results.
Exam item: For "N#Cc1c(-c2ccccc2)cc(-c2ccccc2)n(CCCCCC(=O)Nc2ccccc2N)c1=O" , what is its reported growth?
Marked response: 46.3% (inactive)

Exam item: And for "Cc1nc2sc(C(=O)Nc3ccccc3)c(N)c2cc1C(=O)c1ccccc1" ?
Marked response: 32.4% (inactive)

Exam item: Param item: COc1cc2c(c(OC)c1OC)C(=O)CC(c1cccc(NC(=O)c3ccc(Br)cc3)c1)O2 (stereo not given)
Marked response: 5.9% (active)

Exam item: Now this one: "O=S(=O)(Nc1ccc(Cl)cc1)c1ccc(-c2cnc(C3CC3)o2)cc1"
Marked response: 9.33% (active)

Others:
Exam item: Entry under review: "COc1ccc(-c2nc3c(c(-c4ccccc4)nn3-c3ccccc3)c(-c3ccc(N4CCOCC4)cc3)c2C#N)cc1" . Reported growth?
Marked response: 96.9% (inactive)

Exam item: // same read-out, input: CCC(C)N(c1ccc(Cl)cc1)c1nc(-c2ccc(Br)cc2)cs1 (stereo not given)
Marked response: 92.4% (inactive)

Exam item: How about this molecule: "O=C(CCc1nnc(Cn2cnc3nc[nH]c3c2=O)o1)c1nc2ncccc2[nH]1"
Marked response: 99.7% (inactive)

Exam item: Now try "COc1cc(/C=C\c2cc(/C=C\c3ccc(O)c(OC)c3)n(C(=O)COc3ccc(Cl)cc3Cl)n2)ccc1O" .
Marked response: 4.41% (active)

Exam item: Consider next the molecule "CC(=O)n1nc(C(=O)OC(C)C)c2cc(C)c(C)cc21" in the same way.
Marked response: 91.1% (inactive)

Exam item: Similarly, "O=C(/C=C/c1cccs1)c1ccc(Cl)nc1" ?
Marked response: 97.1% (inactive)

###

Test system: U251 CNS
Assay: NCI-60 one-dose screen, 48 h
Settings: 10 µM unless noted
Protocol: Growth inhibition of the U251 human tumor cell line is measured as a screen for anti-cancer activity. Cells are grown in 96 well plates and exposed to the test compound for 48 hours. Compounds are tested at a single concentration, which is 10^-5 M for most compounds. The reported endpoint is percent growth (GI% or GIPRCNT), where numbers from 0 - 100% represent growth inhibition, and numbers from -100% - 0 represent cell death. For example, a value of 40 represents 60% growth inhibition. […]
This is part of a sample that, as a whole, favours compounds with a hit. Of some 83,000 tested, about 20% had one in any assay. The source made the active and inactive calls. How the source made its calls: active means growth percent below 10; inactive means the rest.
Allowed answers: label 1 (active), label 0 (inactive)

Exam item: Could you check what this test reported for "O=C(N/N=C/c1ccc(F)cc1)c1ccc(C(F)(F)F)nc1Nc1cccc(C(F)(F)F)c1" ?
Marked response: label 1

Exam item: # repeat for CCn1cc(C(=O)N/N=C/c2cccs2)c(=O)c2cc(F)c(N3CCNC(C)C3)c(F)c21 (stereo unspecified)
Marked response: label 0

Exam item: Same lookup for "C[C@H](NC(=O)[C@@H](C)N)[C@H](Oc1ccc2c(cnn2-c2ccc(F)cc2)c1)c1ccc2c(c1)OCCO2" , please.
Marked response: label 0

Continuing:
Exam item: In this assay, the call recorded for "COc1ccc2[nH]cc(-c3nc(-c4cn(C)c5c(Cl)nccc45)cs3)c2c1" was what?
Marked response: label 0

Exam item: For CCCCCCC1(C)NCCO1 (stereo unspecified) then?
Marked response: label 0

Exam item: Let us now turn to CCC(C)N(c1ccc(Cl)cc1)c1nc(-c2ccc(Br)cc2)cs1 (stereo unspecified)
Marked response: label 0

Exam item: Request: "CCCCCCCCn1ccc2cc(NC(=O)Cn3cc(CN4CCCCC4)nn3)ccc21"
Marked response: label 1

Exam item: Entry to check: "COC(=O)c1c2c(c(C)[n+]([O-])c1C)C(=O)C=C(NCc1ccc(Br)cc1)C2=O"
Marked response: label 1

###

System: SW-620 colon
Experiment: NCI-60 one-dose screen, 48 h
Conditions: 10 µM unless noted
The panel holds about 83,000 compounds, 20% with a hit somewhere; the sample as a whole holds those more often. Calls of active or inactive are those of the source. Rule for the calls: active = growth percent below 10; inactive = the rest.
I would appreciate it if you answered using one of these outcomes: true (1) = active, false (0) = inactive

Record excerpt, results attached:
Exam item: Please state the recorded outcome for this compound: "O=C(Nc1cccnc1Nc1ccc(F)cc1)c1cn(Cc2cccc(Oc3ccccc3)c2)nn1"
Marked response: false (0)

Exam item: Can you check "CCCCCCCCCCCCCCCCCCOc1ccccc1CC(=O)OCC[N+]1(C)CCCC1" next?
Marked response: false (0)

Exam item: And then Nc1ncnc2c1N=C(c1ccc(Cl)cc1)CC(c1ccc3c(c1)OCO3)N2 (stereo unspecified) , what is it?
Marked response: false (0)

Exam item: // next record "O=C1NCCC12CCN(c1c(Cl)cncc1-c1ccc(O)cc1)CC2"
Marked response: false (0)

Exam item: Record: "CCn1c(=S)sc2c(Nc3ccc(F)cc3)nc(-c3cccnc3)nc21"
Marked response: false (0)

Exam item: Same again, this time with "O=C1NC(=O)c2c1c1c3ccccc3ccc1c1[nH]c3ccc(Br)cc3c21"
Marked response: false (0)

Exam item: Moving on to "CCOC(=O)c1c(NC(=O)c2ccc(C(C)C)cc2)sc2c(CN(C)C)c(O)ccc12"
Marked response: true (1)

Exam item: Same for "CCCc1cc(NC)nc(S(=O)(=O)CC)n1"
Marked response: false (0)

Below: the item to evaluate.
Exam item: Write down the call the test reported for this compound. Item: "C#CCOc1ccc2ncnc(Nc3cccc(NC(=O)C=C)c3)c2c1"
Marked response: false (0)

###

Tested on: SF-268 CNS
Assay: NCI-60 one-dose screen, 48 h
Conditions: 10 µM unless noted
This is part of a sample that, as a whole, favours compounds with a hit. Of some 83,000 tested, about 20% had one in any assay. Calls of active or inactive are those of the source. Rule for the calls: active = growth percent below 10; inactive = the rest.
Valid outcomes are listed here; reply with one: true (1) for active, false (0) for inactive

Use the examples below as a reference point.
Exam item: Status in this test for "C=CCn1c(SCC(=O)NCc2cc(C)c(O)c(C)c2)nc2ccc(Cl)cc2c1=O" ?
Marked response: false (0)

Exam item: Proceed to "Cn1cc(-c2nc(-c3c[nH]c4ccncc34)cs2)c2ccccc21"
Marked response: false (0)

Exam item: Try the molecule "Oc1ccc(CN2CCC(N3CCCCC3)CC2)c2cccnc12"
Marked response: false (0)

Exam item: Note, next up: "C#CCOc1cccc(Nc2ncnc3c(NC(=O)C=C)cccc23)c1"
Marked response: false (0)

Exam item: Note, next up: "Clc1ccc(Sc2cnc(-c3ccccc3)o2)cc1"
Marked response: false (0)

Others:
Exam item: Fill in: this test's call for O=[N+]([O-])C1C(c2ccccc2)C12c1ccccc1-c1ccccc12 (configuration not stated) is ___
Marked response: false (0)
